Sourced from patent US6166065A

System: Plasmodium falciparum (NF54)
Test: In vitro antimalarial activity, [3H]hypoxanthine incorporation into chloroquine-sensitive P. falciparum (NF 54)
Assay type: cell-based
Conditions: Plasmodium falciparum, NF54; Survey data (provisional; seven 5-fold dilutions in triplicate)
Parameter measured: IC50 (nM)

Sample records with IC50:
molecule="C[C@@]1(O)[C@@H]2C[C@H](C[C@@H]1OC(=O)c1ccccc1)[C@@](C)(CS(=O)(=O)c1ccccc1)OO2 [Compound 29a]" tgt="Plasmodium falciparum (NF54)" unit_of_measurement=nM quantitative_readout=250
molecule="C[C@]1(CSc2ccccc2)OOC2C[C@@H]1C[C@H](OC(=O)c1ccccc1)[C@]2(C)O (stereo in doubt) [Compound 4a]" tgt="Plasmodium falciparum (NF54)" unit_of_measurement=nM quantitative_readout=110

1: CCCCS(=O)(=O)C[C@@]1(C)OO[C@H]2C[C@@H]1C[C@H](OC(=O)c1ccccc1)[C@]2(C)O [Compound 30a]
2: CC1=CC[C@@H]2C[C@H]1OO[C@@]2(C)CS(=O)(=O)c1ccccc1 [Compound 37a]
Which record shows the lower IC50: the first, 1 , or the second, 2 ? Write down the label of the entry you select.
1

###

Test system: Plasmodium falciparum (NF54)
Experiment: In vitro antimalarial activity, [3H]hypoxanthine incorporation into chloroquine-sensitive P. falciparum (NF 54)
Type: cell-based
Conditions: Plasmodium falciparum, NF54; Expansion data (ten concentrations, quadruplicate, ~1.8-fold dilutions)
Parameter measured: IC50 (nM)

Sample records with IC50:
compound="CCOC(=O)C(=O)O[C@]1(C)CC[C@@H]2C[C@H]1OO[C@]2(C)CS(=O)(=O)c1ccccc1 [Compound 25b]" parameter_measured=IC50 unit_of_measurement=nM quantitative_readout=140
compound="C[C@@]1(OC(=O)Oc2ccccc2)CC[C@@H]2C[C@H]1OO[C@@]2(C)CS(=O)(=O)c1ccccc1 [Compound 27a]" parameter_measured=IC50 unit_of_measurement=nM quantitative_readout=47
compound="C[C@@]12O[C@@H]1C[C@@H]1C[C@H]2OO[C@@]1(C)CS(=O)(=O)c1ccccc1 [Compound 39a]" parameter_measured=IC50 unit_of_measurement=nM quantitative_readout=92

1: C[C@]1(CS(=O)(=O)c2ccccc2)OO[C@@H]2C[C@H]1CC[C@@]2(C)O [Compound 21b]
2: CC(=O)O[C@]1(C)CC[C@@H]2C[C@H]1OO[C@@]2(C)CS(=O)(=O)c1ccccc1 [Compound 23a]
Which record shows the lower IC50: the first, 1 , or the second, 2 ? Write down the label of the entry you select.
2

I: CC(=O)O[C@]1(C)CC[C@@H]2C[C@H]1OO[C@]2(C)CS(=O)(=O)c1ccccc1 [Compound 23b]
II: CCOC(=O)C(=O)O[C@]1(C)CC[C@@H]2C[C@H]1OO[C@@]2(C)CS(=O)(=O)c1ccccc1 [Compound 25a]
Which record shows the lower IC50: the first, I , or the second, II ? Write down the label of the entry you select.
I

###

Test system: Plasmodium falciparum (NF54)
Assay: In vitro antimalarial activity, [3H]hypoxanthine incorporation into chloroquine-sensitive P. falciparum (NF 54)
Format: cell-based
Details: Plasmodium falciparum, NF54; Expansion data (ten concentrations, quadruplicate, ~1.8-fold dilutions)
Parameter measured: IC50 (µM)

I: CC(C)=CCO[C@]1(C)CC[C@@H]2C[C@H]1OO[C@@]2(C)CS(=O)(=O)c1ccccc1 [Compound 35a]
II: CC(=O)O[C@]1(C)CC[C@@H]2C[C@H]1OO[C@]2(C)C[S+]([O-])c1ccccc1 (some centres unmarked) [Compound 41b]
Which record shows the lower IC50: the first, I , or the second, II ? Write down the label of the entry you select.
I

A: C[C@@]1(OC/C=C/c2ccccc2)CC[C@@H]2C[C@H]1OO[C@@]2(C)CS(=O)(=O)c1ccccc1 [Compound 36a]
B: C[C@@]1(O)CC[C@@H]2C[C@H]1OO[C@@]2(C)CS(=O)(=O)c1ccccc1 [Compound 21a]
C: C[C@H]1CC[C@@H]2C[C@H]1OO[C@@]2(C)CS(=O)(=O)c1ccccc1 [Compound 22a]
// sort entries: IC50, high to low Show the ranking through the labels, in the order asked for.
B, A, C
(B: 0.055 µM, A: 0.032 µM, C: 0.017 µM)
